Origin of measurements: patent US20070111251A1

- PROCEDURE TEXT: Additive decomposition of peak excitation and emission wavelengths (model coefficients of A and B groups)
EXPERIMENTAL ENDPOINT: influence of group on peak wavelength

1. O=Cc1ccc(-c2ccccc2)cc1
bluer

###

αi^em values, listed per item
- PROCEDURE TEXT: Additive decomposition of peak excitation and emission wavelengths (model coefficients of A and B groups)
- STUDY CONDITIONS: influence of A group on peak emission wavelength, A group 1 as baseline
EXPERIMENTAL ENDPOINT: αi^em (nm)

1) O=Cc1ccccc1[N+](=O)[O-] [A group 20]
44.5
2) COc1cc(C=O)cc(OC)c1OC [A group 13]
0.2
3) Cc1ccccc1C=O [A group 7]
38.5
4) O=Cc1ccccc1F [A group 29]
−8.0
5) O=CCc1ccccc1 [A group 1]
0.0
6) O=CC=Cc1ccccc1[N+](=O)[O-] [A group 36]
3.8
7) O=Cc1c(F)c(F)c(F)c(F)c1F [A group 31]
6.9
8) O=Cc1ccccn1 [A group 40]
64.8
9) O=Cc1cccc([N+](=O)[O-])c1 [A group 21]
21.6
10) COc1ccc(C=O)cc1O [A group 15]
−33.1
11) O=Cc1ccc([N+](=O)[O-])cc1 [A group 22]
−10.3
12) CC(=O)Nc1ccc(C=O)cc1 [A group 18]
51.2
13) O=Cc1ccc2ccc3cccc4ccc1c2c34 [A group 41]
46.9
14) CN(C)c1ccc(C=O)c2ccccc12 [A group 27]
72.0
